Listed below: ABSOLUTE LYMPHOCYTE values for each entry.
- Species on record: Rattus norvegicus
- TEST_DETAILS: DrugMatrix - Regimen: Daily Repeat
- Type: toxicity, organism-based, Sprague-Dawley
- Design: regimen Daily Repeat, gender Male, age 6-8 weeks
- CONDITION_INFO: in vivo, po, 0 mg/kg, 72 h, tissue Blood, route oral GAVAGE, dose level Control, time 3 day, […]
ASSAY_READOUT: ABSOLUTE LYMPHOCYTE (CELLS/uL)

> print(dat)
                                   compound  numeric.readout
1           Cc1ccc(C)c(OCCCC(C)(C)C(=O)O)c1          6295.33
2                     CC(=O)Oc1ccccc1C(=O)O          6275.67
3  CS(=O)(=O)Nc1ccc([N+](=O)[O-])cc1Oc1ccccc1 [NIMESULIDE]             7601

* * *

- Organism: Rattus norvegicus
- TEST_DETAILS: DrugMatrix - Regimen: Daily Repeat
- Format: toxicity, organism-based, Sprague-Dawley
- Parameters: regimen Daily Repeat, gender Male, age 6-8 weeks
- CONDITION_INFO: in vivo, po, 0 mg/kg, 72 h, tissue Plasma, route oral GAVAGE, dose level Control, time 3 day, vehicle .5 % CMC

MOLECULE	URIC ACID [mg/dL]
CCC1=C(C)CN(C(=O)NCCc2ccc(S(=O)(=O)NC(=O)N[C@H]3CC[C@H](C)CC3)cc2)C1=O [GLIMEPIRIDE]	1.28
C[C@@](Cc1ccc(O)c(O)c1)(NN)C(=O)O.O [CARBIDOPA]	1.63
NC(=O)N1c2ccccc2CC(=O)c2ccccc21 [OXCARBAZEPINE]	1.55
COc1cc(OC)c(C(=O)CCCN2CCCC2)c(OC)c1 [BUFLOMEDIL]	1.72
C[C@@H]1O[C@@H](O[C@H]2C[C@@H](O)[C@]3(CO)[C@H]4[C@H](O)C[C@]5(C)[C@@H](C6=CC(=O)OC6)CC[C@]5(O)[C@@H]4CC[C@]3(O)C2)[C@H](O)[C@H](O)[C@H]1O [OUABAIN]	1.7
CCCCC1=NC2(CCCC2)C(=O)N1Cc1ccc(-c2ccccc2-c2nnn[nH]2)cc1 [IRBESARTAN]	1.03
COc1ccccc1[N+](=O)[O-] [2-NITROANISOLE]	1.4
CCOc1nc2cccc(C(=O)O)c2n1Cc1ccc(-c2ccccc2-c2nnn[nH]2)cc1	1.9
C[C@]12CC[C@@H]3c4ccc(O)cc4CC[C@H]3[C@@H]1C[C@@H](O)[C@@H]2O [ESTRIOL]	1.8
CN(C)C(=O)C(CCN1CCC(O)(c2ccc(Cl)cc2)CC1)(c1ccccc1)c1ccccc1 [LOPERAMIDE]	1.28
C[C@H]1[C@H](NC(=O)/C(=N\OC(C)(C)C(=O)O)c2csc(N)n2)C(=O)N1S(=O)(=O)O [AZTREONAM]	1.63

* * *

- Organism: Rattus norvegicus
- TEST_DETAILS: DrugMatrix - Regimen: Daily Repeat
- Format: toxicity, organism-based, Sprague-Dawley
- Set-up: regimen Daily Repeat, gender Male, age 6-8 weeks
- CONDITION_INFO: in vivo, po, 0 mg/kg, 120 h, tissue Plasma, route oral GAVAGE, dose level Control, time 5 day, vehicle 100 % WATER
// SODIUM lookup, one value per entry
ASSAY_READOUT: SODIUM (MEQ/L)

> print(dat)
                                    compound  unit.spec  numeric.readout
 1                     NC12CC3CC(CC(C3)C1)C2      MEQ/L           142.43
 2  CCN(CC)CCNC(=O)c1ccc(N)cc1 [PROCAINAMIDE]      MEQ/L           148.17
 3            CN(C)CCC=C1c2ccccc2CCc2ccccc21      MEQ/L           142.43
 4              NC(=O)c1cccnc1 [NIACINAMIDE]      MEQ/L           145.17
 5  C#Cc1cccc(Nc2ncnc3cc(OCCOC)c(OCCOC)cc23)c1      MEQ/L              138
 6         CCN(CC)CCOC(=O)C1(C2CCCCC2)CCCCC1      MEQ/L           148.17
 7  O=c1[nH]c(=O)n(C2CCCO2)cc1F (stereo unspecified)      MEQ/L           146.95
 8  CCN(C(C)=O)c1cccc(-c2ccnc3c(C#N)cnn23)c1      MEQ/L           142.43
 9  CCCC(C)C1(CC)C(=O)NC(=O)NC1=O (stereo unspecified)      MEQ/L              145
10  CNC1=Nc2ccc(Cl)cc2C(c2ccccc2)=[N+]([O-])C1 [CHLORDIAZEPOXIDE]      MEQ/L           142.33
11  CN(C)C(=O)Oc1cccc([N+](C)(C)C)c1.[Br-] [NEOSTIGMINE BROMIDE]      MEQ/L              145

* * *

- Organism: Rattus norvegicus
- TEST_DETAILS: DrugMatrix - Regimen: Daily Repeat
- Assay type: toxicity, organism-based, Sprague-Dawley
- Parameters: regimen Daily Repeat, gender Male, age 6-8 weeks
- CONDITION_INFO: in vivo, iv, 0 mg/kg, 72 h, tissue Blood, dose level Control, time 3 day, vehicle 100 % SALINE
ASSAY_READOUT: BASOPHIL (%)

> print(dat)
                                   compound  assay.readout  unit.spec  numeric.readout
1                           O=C(O)P(=O)(O)O       BASOPHIL          %                0
2   N=C(N)c1ccc(OCCCCCOc2ccc(C(=N)N)cc2)cc1       BASOPHIL          %                0
3  COc1cccc2c1C(=O)c1c(O)c3c(c(O)c1C2=O)C[C@@](O)(C(C)=O)C[C@@H]3O[C@H]1C[C@H](N)[C@H](O)[C@H](C)O1       BASOPHIL          %                0
4  C[N+](C)(C)CCOC(=O)CCC(=O)OCC[N+](C)(C)C.[Cl-].[Cl-] [SUCCINYLCHOLINE CHLORIDE]       BASOPHIL          %                0
5  O=c1[nH]c(=O)n([C@H]2C[C@H](O)[C@@H](CO)O2)cc1F       BASOPHIL          %                0

* * *

- Organism: Rattus norvegicus
- TEST_DETAILS: DrugMatrix - Regimen: Daily Repeat
- Assay type: toxicity, organism-based, Sprague-Dawley
- Set-up: regimen Daily Repeat, gender Male, age 6-8 weeks
- CONDITION_INFO: in vivo, po, 0 mg/kg, 120 h, tissue Blood, route oral GAVAGE, dose level Control, time 5 day, vehicle 100 % WATER
ASSAY_READOUT: NUCLEATED RED BLOOD CELLS

> print(dat)
                                   compound        result
1  CN(C)C(=O)Oc1cccc([N+](C)(C)C)c1.[Br-] [NEOSTIGMINE BROMIDE]     0 /100WBC
2                     NC12CC3CC(CC(C3)C1)C2     0 /100WBC
3  O=c1[nH]c(=O)n(C2CCCO2)cc1F (stereo not drawn)  0.17 /100WBC
4  CNC1=Nc2ccc(Cl)cc2C(c2ccccc2)=[N+]([O-])C1 [CHLORDIAZEPOXIDE]  0.17 /100WBC
5              NC(=O)c1cccnc1 [NIACINAMIDE]  0.33 /100WBC
6  CCCC(C)C1(CC)C(=O)NC(=O)NC1=O (stereo not drawn)     0 /100WBC
7  CCN(C(C)=O)c1cccc(-c2ccnc3c(C#N)cnn23)c1     0 /100WBC
8            CN(C)CCC=C1c2ccccc2CCc2ccccc21     0 /100WBC

* * *

- Species: Rattus norvegicus
- TEST_DETAILS: DrugMatrix - Regimen: Daily Repeat
- Format: toxicity, organism-based, Sprague-Dawley
- Set-up: regimen Daily Repeat, gender Male, age 6-8 weeks
- CONDITION_INFO: in vivo, po, 100 mg/kg, […], tissue Blood, route oral GAVAGE, dose level High, time 14 day, vehicle .5 % CMC
ASSAY_READOUT: ABSOLUTE LYMPHOCYTE (cells/µL)

> print(dat)
              compound.smiles  numeric.readout
1  CN(C)CCN(Cc1cccs1)c1ccccn1            12900
